system under test: Cyclin-dependent kinase 2/G1/S-specific cyclin-E1 (Homo sapiens, UniProt P24941)
assay text: CDK2/CycE Kinase Assay
recorded endpoint: IC50 (µM)

- FC(F)(F)c1ccc(-c2cnc(CNc3nc(N4CCOCC4)nc4c(C(F)(F)F)cnn34)[nH]2)cn1: 7.82

[1] COc1ccc(-c2cnc(CNc3nc(N4CCOCC4)nn4c(C(F)(F)F)cnc34)[nH]2)cc1
[2] FC(F)(F)Oc1ccc(-c2nnc(CNc3nc(N4CCOCC4)nc4c(C(F)(F)F)cnn34)[nH]2)cn1
[3] FC(F)(F)c1ccc(-c2nnc(CNc3nc(N4CCOCC4)nc4c(C(F)(F)F)cnn34)[nH]2)cn1
[in] List the 3 entries from lowest IC50 to highest IC50 value. Please express your ranking as an ordered list of the labels.
[out] 3, 2, 1
